# procedure summary: Inhibition of Phosphatidylinositol 3-kinase
Provide the recorded IC50 for the entries that follow.

Examples with answers:
C/N=C/C1=C(O)O[C@H](COC)[C@@]2(C)C1=C(O)C(=O)C1=C2[C@H](OC(C)=O)C[C@]2(C)C(=O)CC[C@@H]12 = > 500 nM
CCC/N=C\C1=C(O)O[C@H](COC)[C@@]2(C)C1=C(O)C(=O)C1=C2[C@H](OC(C)=O)C[C@]2(C)C(=O)CC[C@@H]12 = > 500 nM
CCN(/C=C1/C(=O)O[C@H](COC)[C@@]2(C)C1=C(O)C(=O)C1=C2[C@H](OC(C)=O)C[C@]2(C)C(=O)CC[C@@H]12)CC = 80 nM
COC[C@H]1OC(=O)C(=C(C)C)C2=C(O)C(=O)C3=C([C@H](OC(C)=O)C[C@]4(C)C(=O)CC[C@@H]34)[C@]21C = > 500 nM
COC[C@H]1OC(=O)C2=CCOC3=C2[C@@]1(C)C1=C(C3=O)[C@@H]2CCC(=O)[C@@]2(C)C[C@H]1OC(C)=O = 271 nM

Kindly give each listed record's IC50.
1. COC[C@H]1OC(=O)C23CC2COC2=C3[C@@]1(C)C1=C(C2=O)[C@@H]2CCC(=O)[C@@]2(C)C[C@H]1OC(C)=O (some centres undefined)
2. COC[C@H]1OC(=O)c2coc3c2[C@@]1(C)C1=C(C3=O)[C@@H]2CCC(=O)[C@@]2(C)C[C@H]1OC(C)=O
3. COC[C@H]1OC(O)=C(C=N)C2=C(O)C(=O)C3=C([C@H](OC(C)=O)C[C@]4(C)C(=O)CC[C@@H]34)[C@]21C
4. CC/N=C/C1=C(O)O[C@H](COC)[C@@]2(C)C1=C(O)C(=O)C1=C2[C@H](OC(C)=O)C[C@]2(C)C(=O)CC[C@@H]12

["> 500 nM", "4.2 nM", "> 500 nM", "> 500 nM"]

src = ChEMBL document CHEMBL1150451
